Tested on: PIK3CA (human), P42336 [M1043I]
Sequence (P42336 whole entry M1043I, looked up): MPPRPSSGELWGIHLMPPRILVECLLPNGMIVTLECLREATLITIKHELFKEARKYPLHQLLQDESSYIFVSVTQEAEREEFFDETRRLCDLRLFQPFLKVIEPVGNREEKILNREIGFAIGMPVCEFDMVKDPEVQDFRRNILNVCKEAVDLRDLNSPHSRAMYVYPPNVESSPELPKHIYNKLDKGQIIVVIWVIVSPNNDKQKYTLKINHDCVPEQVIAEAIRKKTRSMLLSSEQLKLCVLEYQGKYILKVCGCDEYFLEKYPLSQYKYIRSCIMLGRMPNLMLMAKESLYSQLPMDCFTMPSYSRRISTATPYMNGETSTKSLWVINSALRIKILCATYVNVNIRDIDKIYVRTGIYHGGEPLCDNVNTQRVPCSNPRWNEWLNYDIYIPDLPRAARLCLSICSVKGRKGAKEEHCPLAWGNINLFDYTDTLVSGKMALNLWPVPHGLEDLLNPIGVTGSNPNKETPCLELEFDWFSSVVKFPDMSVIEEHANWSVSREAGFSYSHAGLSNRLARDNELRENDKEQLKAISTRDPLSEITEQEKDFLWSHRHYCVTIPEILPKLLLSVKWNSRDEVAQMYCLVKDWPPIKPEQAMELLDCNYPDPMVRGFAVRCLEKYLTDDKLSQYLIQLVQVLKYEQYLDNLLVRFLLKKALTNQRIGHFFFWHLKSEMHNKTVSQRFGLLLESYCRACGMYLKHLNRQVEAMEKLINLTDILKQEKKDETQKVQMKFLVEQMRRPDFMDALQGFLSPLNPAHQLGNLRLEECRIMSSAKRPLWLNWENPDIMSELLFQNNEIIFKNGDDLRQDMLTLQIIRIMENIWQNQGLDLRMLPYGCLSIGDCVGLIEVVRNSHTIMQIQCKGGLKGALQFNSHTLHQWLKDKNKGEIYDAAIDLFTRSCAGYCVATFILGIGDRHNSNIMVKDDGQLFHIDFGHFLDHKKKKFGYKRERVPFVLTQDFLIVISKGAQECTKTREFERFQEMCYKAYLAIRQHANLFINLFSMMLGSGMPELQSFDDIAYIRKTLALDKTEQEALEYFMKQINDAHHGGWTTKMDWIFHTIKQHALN
Assay: KINOMEscan competition binding
Details: compound 10.0 µM
Each record here notes measured kinase still bound, per cent of control.
Give your result in % as a bare value.

Known kinase still bound, per cent of control results, listed for orientation:
- C=CC(=O)Nc1ccc(C(=O)c2sc(Nc3ccc(N4CCN(C)CC4)cc3OC)nc2N)cc1: 100
- C=CC(=O)Nc1cc(-n2c(=O)ccc3cnc4ccc(-c5cn[nH]c5)cc4c32)ccc1C: 15

Consider the record given below.
Fill in the blank: the reported kinase still bound, per cent of control of CCN(CCO)CCCOc1ccc2c(Nc3cc(CC(=O)Nc4cccc(F)c4)[nH]n3)ncnc2c1 is ____.
100

====

Target: CDK7 (human) (UniProt P50613)
Sequence (P50613 whole entry, looked up): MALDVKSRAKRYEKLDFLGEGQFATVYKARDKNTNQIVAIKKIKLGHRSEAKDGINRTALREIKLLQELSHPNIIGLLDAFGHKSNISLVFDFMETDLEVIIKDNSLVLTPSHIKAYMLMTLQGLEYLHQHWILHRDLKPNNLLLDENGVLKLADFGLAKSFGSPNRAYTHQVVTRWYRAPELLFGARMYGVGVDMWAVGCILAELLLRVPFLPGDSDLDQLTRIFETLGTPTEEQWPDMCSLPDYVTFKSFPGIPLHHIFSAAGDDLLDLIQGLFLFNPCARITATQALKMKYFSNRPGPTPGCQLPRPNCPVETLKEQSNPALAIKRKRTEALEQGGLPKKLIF
Assay: KINOMEscan competition binding
Conditions: compound 10.0 µM
The label Fulfilled is reserved for kinase still bound, per cent of control strictly under 20%; Not fulfilled covers values equal to or above it.

Study these solved cases before continuing.
• N#C/C(=C1/Nc2ccccc2S1)c1ccnc(NCCc2cccnc2)n1 = Fulfilled
• C=CC(=O)Nc1ccc(C(=O)c2sc(Nc3ccc(N4CCN(C)CC4)cc3OC)nc2N)cc1 = Fulfilled
• CCN(CCO)CCCOc1ccc2c(Nc3cc(CC(=O)Nc4cccc(F)c4)[nH]n3)ncnc2c1 = Fulfilled
• COc1cc(N2CCC(C(N)=O)CC2)ccc1Nc1nc(N)c(Cl)c(Nc2ccccc2S(=O)(=O)C(C)C)n1 = Not fulfilled

Now look at this one.
Please indicate whether the reported kinase still bound, per cent of control of CCCS(=O)(=O)Nc1ccc(F)c(C(=O)c2c[nH]c3ncc(Cl)cc23)c1F is strictly below 20%.
Not fulfilled

====

Target: TNNI3K (human)
Assay: KINOMEscan competition binding
Conditions: compound 10.0 µM
measured quantity: kinase still bound, per cent of control (%)
# unit: % | format: bare number

Sample records with kinase still bound, per cent of control:
- Cc1cn(-c2cc(C(=O)Nc3ccc(C)c(NC(=O)c4ccno4)c3)cc(C(F)(F)F)c2)cn1: 29
- CCCS(=O)(=O)Nc1ccc(F)c(C(=O)c2c[nH]c3ncc(Cl)cc23)c1F: 75
- CCc1nc(-c2cccc(C)c2)c(-c2ccnc(NC(=O)c3ccccc3)c2)s1: 86
- COc1cc(C)c(Sc2cnc(NC(=O)c3ccc(CNC(C)C(C)C)cc3)s2)cc1C(=O)N1CCN(C(C)=O)CC1 (stereo not given): 100

Query for TNNI3K (human): what kinase still bound, per cent of control does the record show for O=c1[nH]c2ccccc2n1C1CCN(Cc2ccc(-c3nc4cc5[nH]cnc5cc4nc3-c3ccccc3)cc2)CC1 ?
100

Record: N#C/C(=C1/Nc2ccccc2S1)c1ccnc(NCCc2cccnc2)n1
93

Try the compound C=CC(=O)Nc1ccc(C(=O)c2sc(Nc3ccc(N4CCN(C)CC4)cc3OC)nc2N)cc1
89

And then COc1cc2ncnc(Nc3cccc(Cl)c3)c2cc1OC , what is it?
38

Repeat with N#Cc1cc(-c2ccnc(Nc3ccc(-n4cnc(-c5cccnc5)n4)cc3)n2)cc(N2CCOCC2)c1
80

// same read-out, input: CCN(CCO)CCCOc1ccc2c(Nc3cc(CC(=O)Nc4cccc(F)c4)[nH]n3)ncnc2c1
100

====

The following compounds are shown together with reported kinase still bound, per cent of control values.
Molecular target: CAMK2B (human) (UniProt Q13554)
Sequence (Q13554 whole entry, looked up): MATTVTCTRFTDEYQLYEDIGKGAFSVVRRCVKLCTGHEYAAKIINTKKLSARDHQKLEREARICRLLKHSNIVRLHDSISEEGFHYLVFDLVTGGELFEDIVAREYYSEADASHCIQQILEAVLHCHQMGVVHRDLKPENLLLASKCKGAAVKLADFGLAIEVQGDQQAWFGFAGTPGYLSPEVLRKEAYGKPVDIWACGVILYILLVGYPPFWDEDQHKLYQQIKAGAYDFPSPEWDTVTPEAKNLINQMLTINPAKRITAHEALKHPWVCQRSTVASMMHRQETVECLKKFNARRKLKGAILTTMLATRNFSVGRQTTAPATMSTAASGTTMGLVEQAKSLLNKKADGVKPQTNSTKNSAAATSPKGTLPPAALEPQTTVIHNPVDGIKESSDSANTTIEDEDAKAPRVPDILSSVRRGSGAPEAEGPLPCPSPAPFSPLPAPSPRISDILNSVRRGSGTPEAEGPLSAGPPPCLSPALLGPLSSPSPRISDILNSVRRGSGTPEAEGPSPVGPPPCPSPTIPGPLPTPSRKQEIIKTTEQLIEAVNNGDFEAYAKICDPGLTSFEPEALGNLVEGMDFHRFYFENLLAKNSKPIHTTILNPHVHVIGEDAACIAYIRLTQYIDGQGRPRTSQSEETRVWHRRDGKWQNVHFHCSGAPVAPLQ
Assay: KINOMEscan competition binding
Conditions: compound 10.0 µM
Enter your answer as a number in %; do not include the unit.

Worked examples follow.
- N#Cc1cc(-c2ccnc(Nc3ccc(-n4cnc(-c5cccnc5)n4)cc3)n2)cc(N2CCOCC2)c1: 37
- COc1cc(C)c(Sc2cnc(NC(=O)c3ccc(CNC(C)C(C)C)cc3)s2)cc1C(=O)N1CCN(C(C)=O)CC1 (stereo not drawn): 100
- COc1ccc(N(C(=O)Oc2cc(C(=O)Nc3cccc(C(F)(F)F)c3)ccc2C)c2ccnc(Nc3ccc(N4CCN(C)CC4)cc3)n2)c(OC)c1: 100
- CCCS(=O)(=O)Nc1ccc(F)c(C(=O)c2c[nH]c3ncc(Cl)cc23)c1F: 63

Record request: kinase still bound, per cent of control value, item CNC(=O)Nc1ccc(-c2nc(N3CC4CCC(C3)O4)c3cnn(C4CCC5(CC4)OCCO5)c3n2)cc1
100

Next record, please: N#C/C(=C1/Nc2ccccc2S1)c1ccnc(NCCc2cccnc2)n1
49

Try this compound too: CCOc1cc(N2CCC(O)CC2)ccc1Nc1ncc2c(n1)N(C)c1ccccc1C(=O)N2C
100

Subsequent entry: CCN(CCO)CCCOc1ccc2c(Nc3cc(CC(=O)Nc4cccc(F)c4)[nH]n3)ncnc2c1
84

====

Tested on: FGFR3 (human), P22607 [G697C]
Sequence (P22607 whole entry G697C, looked up): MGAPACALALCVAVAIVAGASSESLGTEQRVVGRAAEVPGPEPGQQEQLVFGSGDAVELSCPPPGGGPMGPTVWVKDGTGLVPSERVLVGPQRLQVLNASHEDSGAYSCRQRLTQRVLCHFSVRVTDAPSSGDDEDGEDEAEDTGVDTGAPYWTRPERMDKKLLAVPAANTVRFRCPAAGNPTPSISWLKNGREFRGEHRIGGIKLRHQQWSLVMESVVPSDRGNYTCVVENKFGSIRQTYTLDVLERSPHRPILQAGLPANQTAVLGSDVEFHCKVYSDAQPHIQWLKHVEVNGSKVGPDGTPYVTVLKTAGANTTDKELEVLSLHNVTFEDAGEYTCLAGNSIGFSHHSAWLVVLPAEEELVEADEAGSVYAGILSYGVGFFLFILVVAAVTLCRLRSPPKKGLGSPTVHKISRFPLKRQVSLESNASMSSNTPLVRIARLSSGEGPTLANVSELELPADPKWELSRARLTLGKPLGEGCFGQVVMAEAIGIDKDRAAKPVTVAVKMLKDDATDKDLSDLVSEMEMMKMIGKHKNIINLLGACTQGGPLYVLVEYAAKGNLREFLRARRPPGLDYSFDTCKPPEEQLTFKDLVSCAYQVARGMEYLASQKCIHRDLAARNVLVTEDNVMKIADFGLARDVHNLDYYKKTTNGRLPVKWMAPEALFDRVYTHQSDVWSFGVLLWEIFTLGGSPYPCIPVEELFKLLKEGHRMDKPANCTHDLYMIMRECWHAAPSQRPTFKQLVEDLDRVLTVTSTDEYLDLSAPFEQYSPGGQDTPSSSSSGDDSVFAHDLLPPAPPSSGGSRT
Assay: KINOMEscan competition binding
Settings: compound 10.0 µM
# key: entry, value: kinase still bound, per cent of control
Don't forget the unit after the value.

Guide cases for kinase still bound, per cent of control, answers given:
* C[C@@H](Oc1cc(-c2cnn(C3CCNCC3)c2)cnc1N)c1c(Cl)ccc(F)c1Cl | 27%
* N#Cc1cc(-c2ccnc(Nc3ccc(-n4cnc(-c5cccnc5)n4)cc3)n2)cc(N2CCOCC2)c1 | 90%
* CNC(=O)c1cc(Oc2ccc(NC(=O)Nc3ccc(Cl)c(C(F)(F)F)c3)cc2)ccn1 | 39%
* O=c1cc(N2CCOCC2)oc2c(-c3cccc4c3sc3ccccc34)cccc12 | 94%

Query the reported kinase still bound, per cent of control for FGFR3 (human), P22607 [G697C]; item: COc1cc2ncnc(Nc3cccc(Cl)c3)c2cc1OC
100%

Moving on to the next molecule: CS(=O)(=O)N1CCN(Cc2cc3nc(-c4cccc5[nH]ncc45)nc(N4CCOCC4)c3s2)CC1
100%

====

Quick reference: kinase still bound, per cent of control of the listed items.
Molecular target: GRK4 (human)
Assay: KINOMEscan competition binding
Details: compound 10.0 µM
Numeric answer only, unit % assumed.

As a guide, the following entries are already answered.
• C=CC(=O)Nc1ccc(C(=O)c2sc(Nc3ccc(N4CCN(C)CC4)cc3OC)nc2N)cc1 = 52
• Cc1cn(-c2cc(C(=O)Nc3ccc(C)c(NC(=O)c4ccno4)c3)cc(C(F)(F)F)c2)cn1 = 100
• CCN(CCO)CCCOc1ccc2c(Nc3cc(CC(=O)Nc4cccc(F)c4)[nH]n3)ncnc2c1 = 100

I'm curious: which kinase still bound, per cent of control was measured for CC(=O)c1c(C)c2cnc(Nc3ccc(N4CCNCC4)cn3)nc2n(C2CCCC2)c1=O tested on GRK4 (human)?
26

Another: COc1cc2c(Nc3ccc(NC(=O)c4ccccc4)cc3)ncnc2cc1OCCCN1CCOCC1
100

And then N#Cc1cc(-c2ccnc(Nc3ccc(-n4cnc(-c5cccnc5)n4)cc3)n2)cc(N2CCOCC2)c1 , what is it?
37

Next entry: CNC(=O)Nc1ccc(-c2nc(N3CC4CCC(C3)O4)c3cnn(C4CCC5(CC4)OCCO5)c3n2)cc1
100

Also CCc1nc(-c2cccc(C)c2)c(-c2ccnc(NC(=O)c3ccccc3)c2)s1 , if possible.
100

Consider next the compound N#C/C(=C1/Nc2ccccc2S1)c1ccnc(NCCc2cccnc2)n1 in the same way.
32

Check CC1=C(C(=O)Nc2cc3cn[nH]c3cc2F)C(c2ccc(C(F)(F)F)cc2)CC(=O)N1 (stereo not given) too.
99

What do we get for O=c1[nH]c2ccccc2n1C1CCN(Cc2ccc(-c3nc4cc5[nH]cnc5cc4nc3-c3ccccc3)cc2)CC1 ?
100

What about this compound? CCN1CCN(Cc2ccc(NC(=O)c3ccc(C)c(/C=C/c4cnc5[nH]ccc5c4OC)c3)cc2C(F)(F)F)CC1
8.2

Try the compound CCOc1cc(N2CCC(O)CC2)ccc1Nc1ncc2c(n1)N(C)c1ccccc1C(=O)N2C
100

Request: CCCS(=O)(=O)Nc1ccc(F)c(C(=O)c2c[nH]c3ncc(Cl)cc23)c1F
100

Input COc1cc2ncnc(Nc3cccc(Cl)c3)c2cc1OC
100

====

Target: EPHA1 (human) (UniProt P21709)
Sequence (P21709 whole entry, looked up): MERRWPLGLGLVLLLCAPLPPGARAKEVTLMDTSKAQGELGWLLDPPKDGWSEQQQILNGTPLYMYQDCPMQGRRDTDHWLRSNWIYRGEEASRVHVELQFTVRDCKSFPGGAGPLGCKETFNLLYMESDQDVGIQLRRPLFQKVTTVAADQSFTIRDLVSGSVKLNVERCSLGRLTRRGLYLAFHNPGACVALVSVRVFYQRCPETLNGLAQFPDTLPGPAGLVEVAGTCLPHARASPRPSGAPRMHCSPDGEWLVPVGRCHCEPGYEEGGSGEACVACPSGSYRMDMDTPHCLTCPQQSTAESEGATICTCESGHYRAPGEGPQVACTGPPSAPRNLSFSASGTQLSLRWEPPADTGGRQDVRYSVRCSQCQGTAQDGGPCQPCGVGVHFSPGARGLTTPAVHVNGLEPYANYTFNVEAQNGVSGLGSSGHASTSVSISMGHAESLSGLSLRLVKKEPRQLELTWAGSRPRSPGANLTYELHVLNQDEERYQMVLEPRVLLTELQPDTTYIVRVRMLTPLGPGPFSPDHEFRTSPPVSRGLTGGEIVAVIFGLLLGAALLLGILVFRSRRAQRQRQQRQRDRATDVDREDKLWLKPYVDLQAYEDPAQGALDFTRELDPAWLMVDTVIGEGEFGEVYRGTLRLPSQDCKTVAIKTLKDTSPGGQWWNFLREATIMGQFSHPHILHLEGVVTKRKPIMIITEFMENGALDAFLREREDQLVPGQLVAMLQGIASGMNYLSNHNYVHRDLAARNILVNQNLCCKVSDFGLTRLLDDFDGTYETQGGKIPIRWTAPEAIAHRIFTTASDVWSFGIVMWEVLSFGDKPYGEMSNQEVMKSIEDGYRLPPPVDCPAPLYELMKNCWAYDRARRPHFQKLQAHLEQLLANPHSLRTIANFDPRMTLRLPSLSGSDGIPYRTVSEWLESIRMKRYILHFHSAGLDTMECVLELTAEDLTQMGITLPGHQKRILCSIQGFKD
Assay: KINOMEscan competition binding
Conditions: compound 10.0 µM
measured quantity: kinase still bound, per cent of control (%)
All answers are understood in %, so give the number only.

# annotated cases, reported kinase still bound, per cent of control shown
- COc1cc2c(Nc3ccc(NC(=O)c4ccccc4)cc3)ncnc2cc1OCCCN1CCOCC1: 100
- COc1cc2ncnc(Nc3cccc(Cl)c3)c2cc1OC: 43
- CCCS(=O)(=O)Nc1ccc(F)c(C(=O)c2c[nH]c3ncc(Cl)cc23)c1F: 100

What measured kinase still bound, per cent of control goes with CC1=C(C(=O)Nc2cc3cn[nH]c3cc2F)C(c2ccc(C(F)(F)F)cc2)CC(=O)N1 (stereo not given) ?
77

Then COc1cc(C)c(Sc2cnc(NC(=O)c3ccc(CNC(C)C(C)C)cc3)s2)cc1C(=O)N1CCN(C(C)=O)CC1 (stereo not given) ?
100

Source of measurements: the kinase profiling compilation of Christmann-Franck et al. (2016)
